test system: SW-620 colon; assay: NCI tumour cell line growth inhibition, 48 h
endpoint: TGI

compound	testValue
COc1cccc(-c2nc3sccn3c2-c2ccnc(NCCNC(=O)Nc3cccc(C(F)(F)F)c3)n2)c1	91.5 µM

Ask: Look up SW-620 colon data: TGI of O=c1ccn(C2OC(CO)C(O)C2O)c(=O)[nH]1 (centres undefined) , then report it.
Result: > 1000 µM

Ask: Look up SW-620 colon data: TGI of O=C(O)C1CCc2ccc3ccccc3c2C1c1cccc2ccccc12 (centres undefined) , then report it.
Result: > 100 µM

Ask: Look up SW-620 colon data: TGI of "CCOC(=O)[C@@H](C)C[C@H](Cc1ccccc1)NC(=O)c1csc([C@@H](C[C@H](C(C)C)N(C)C(=O)[C@@H](NC(=O)[C@H]2C[C@H](O[Si](C)(C)C(C)(C)C)CCN2C)C(C)C)OC(C)=O)n1" , then report it.
Result: > 8.33 µM

---

Reported TGI by item:
tested on: M14 melanoma; assay: NCI tumour cell line growth inhibition, 48 h

// worked examples, TGI included
compound	system	TGI
CCOc1ccccc1NC(=O)/C=C1\NC(=O)CS1	M14 melanoma	> 100 µM
CCCCCCNC(=O)C1=C(C)NC(C)=C(C(=O)NCCCCCC)C1	M14 melanoma	> 100 µM
CCCCN(c1ccccc1)c1ncnc2c1cnn2C	M14 melanoma	> 100 µM
CCN(CC)c1ccc(N=Nc2ccc(-c3nc4cccnc4o3)cc2)cc1	M14 melanoma	> 100 µM
O=C(Oc1ccc(O)c2c(=O)n3c(cc12)[nH]c1ccccc13)c1ccccc1	M14 melanoma	37 µM
CN(C)c1ccc(/C=C2\Oc3cc(O)ccc3C2=O)cc1	M14 melanoma	> 100 µM
O=C1[C@@H]2Cc3c([nH]c4ccccc34)C(C3CCCCC3)N2C(=O)[C@@H]2CCCN12 (stereo partly specified)	M14 melanoma	> 100 µM
CCCCNc1nc(NC(C)(C)C)nc(NC(C)(C)C)n1	M14 melanoma	> 100 µM
Clc1nc(Oc2ccccc2)nc(-c2cn(-c3ccccc3)c3ccccc23)n1	M14 melanoma	17.1 µM
CC(=O)NC1=N/C(=C/c2cc([N+](=O)[O-])ccc2O)CN1C	M14 melanoma	> 100 µM

Ask: Return TGI for the following compound: "CC(C)(C)OC(=O)N1C(OP(=O)(Oc2ccccc2)Oc2ccccc2)=COc2cccnc21"
Result: > 100 µM

Ask: Return TGI for the following compound: "O=C1C=C(c2c(O)ccc3ccccc23)c2ccccc2C1=O"
Result: 16.8 µM

Ask: Return TGI for the following compound: "COc1cc(OC)c(/C=C/c2ccc3ccccc3[n+]2C)c(OC)c1"
Result: 5.01 µM

Ask: Return TGI for the following compound: "COc1ccc(OC)c2cc(Cc3ccc(N(C)C)cc3)c(=O)c(Cc3ccc(N(C)C)cc3)cc12"
Result: > 100 µM

Ask: Return TGI for the following compound: "CN1CCN(Cc2ccc(NC(=O)c3cncc(C#Cc4cnc(N)c5ccc(F)cc45)c3)cc2C(F)(F)F)CC1"
Result: 4.4 µM

Ask: Return TGI for the following compound: "O=C(NCCO)c1ccc(Cl)cc1"
Result: > 100 µM

Ask: Return TGI for the following compound: "CCOC(=O)CCC(=O)C1c2cccc(O)c2C(=O)c2c(O)cccc21"
Result: 1.9 µM

Ask: Return TGI for the following compound: O=C1OS2(OCc3cccc4cccc2c34)c2ccccc21 (stereo unspecified)
Result: > 100 µM

---

system: UACC-62 melanoma; test: NCI tumour cell line growth inhibition, 48 h
endpoint: TGI

>>> print(df.to_string())
                                   compound            system  endpoint  testvalue
0  COC(=O)[C@@H]1N2C(=S)N(c3ccccc3)C(=O)[C@H]2SC1(C)C  UACC-62 melanoma       TGI   > 100 µM
1  O=C(O)C1CCc2ccc3ccccc3c2C1c1cccc2ccccc12 (stereo not drawn)  UACC-62 melanoma       TGI    29.4 µM
2  COc1cc2c(cc1C)NC(=O)/C2=C\c1cc(OC)c(OC)c(OC)c1  UACC-62 melanoma       TGI   > 100 µM
3                     O=C(NCCO)c1ccc(Cl)cc1  UACC-62 melanoma       TGI   > 100 µM
4  COc1cc2c(cc1OCc1ccccc1)N=C[C@@H]1C/C(=C/C(=O)NCCCN3C(=O)c4cccc5cccc(c45)C3=O)CN1C2=O  UACC-62 melanoma       TGI    2.55 µM

Ask: Return TGI for the following compound: COc1ccc(NC(=O)C2C(=O)N(c3ccc(OC)cc3)C(=O)/C2=N/O)cc1 (stereo not drawn)
Result: 45.8 µM

Ask: Return TGI for the following compound: "COc1ccc(-c2c(C3=NCCN3)nnn2-c2ccccc2)cc1"
Result: > 100 µM

Ask: Return TGI for the following compound: "O=C(c1ccco1)N(C(=S)OCc1ccccn1)c1ccccc1"
Result: > 100 µM

Ask: Return TGI for the following compound: "O=c1cc(-c2ccccc2)[nH]c2cc(Cl)cc(Cl)c12"
Result: > 100 µM

Ask: Return TGI for the following compound: "O=C(Nc1cccc(-c2cn3ccccc3n2)c1)c1ccncc1"
Result: 42.2 µM

Ask: Return TGI for the following compound: "O=C(O)c1ccccc1/C=N\NC1=NCCCCN1"
Result: > 100 µM

Ask: Return TGI for the following compound: "CC(C)n1c(=O)n(-c2ccccc2)n(C(C)(C)C)c1=O"
Result: > 100 µM

---

test system: OVCAR-4 ovarian; test: NCI tumour cell line growth inhibition, 48 h
endpoint: TGI

// worked examples, TGI included
                                   compound  endpoint  testvalue
0  CC(=O)Oc1cc(C)ccc1[C@]1(C)CC[C@H](C)/C1=C\Br       TGI    12.6 µM
1  CCOC(=O)C(O)(NC(C)=O)C(F)(F)F (centres undefined)       TGI   > 100 µM
2  COc1ccc(-c2c(C#N)c(-c3ccccc3)n(NS(=O)(=O)c3ccccc3)c(=O)c2C#N)cc1       TGI   > 100 µM

Ask: Return TGI for the following compound: CC1(C)C2CC(c3ccncc3)ON2C(C)(C)N1O (centres undefined)
Result: > 100 µM

---

tested on: DLD-1 colon; test: NCI tumour cell line growth inhibition, 48 h
Reported TGI by item:

>>> df
                                   compound  endpoint  testvalue
0  O=[N+]([O-])c1c(/C=N/Nc2ccccc2)oc(-c2ccc3c(c2)OCO3)c1-c1ccc2c(c1)OCO2       TGI   > 100 µM

Ask: Return TGI for the following compound: "O=c1cc(-c2ccccc2)[nH]c2cc(Cl)cc(Cl)c12"
Result: > 100 µM

Ask: Return TGI for the following compound: O=C1C(Br)=C[C@H]2C3C=CC(Br)(C3=O)[C@@H]12 (stereo partly specified)
Result: 20.5 µM

---

Reported TGI by item:
test system: CCRF-CEM leukemia; assay: NCI tumour cell line growth inhibition, 48 h

// worked examples, TGI included
>>> print(df.to_string())
                                   compound             system  testvalue
0  CCN(CC)CCCNc1ccc2nnn3c4ccc(O)cc4c(=O)c1c23  CCRF-CEM leukemia    39.8 µM
1  COC(=O)C(C)Sc1nc2cc(Cl)ccc2s1 (configuration not stated)  CCRF-CEM leukemia   > 100 µM
2              CCC(=O)c1cn(C)c(=O)c2ccccc12  CCRF-CEM leukemia   > 100 µM
3              O=c1[nH]nc(Cc2ccc(Cl)cc2)n1O  CCRF-CEM leukemia   > 100 µM
4         O=c1cc(-c2ccccc2)[nH]c2cccc(S)c12  CCRF-CEM leukemia   > 100 µM
5  CC[N+](CCCCCCCCCC[N+](CC)(c1ccccn1)c1ccccn1)(c1ccccn1)c1ccccn1  CCRF-CEM leukemia    8.78 µM
6                     O=C(NCCO)c1ccc(Cl)cc1  CCRF-CEM leukemia    90.2 µM
7  CCOP(=O)(OCC)C(Nc1ccc(F)cc1)c1cccc([N+](=O)[O-])c1 (configuration not stated)  CCRF-CEM leukemia   > 100 µM

Ask: Return TGI for the following compound: "Cc1cc2nc3c(=O)n(C)c(=O)nc-3n(-c3ccc(Cl)cc3)c2cc1C"
Result: 45.4 µM

Ask: Return TGI for the following compound: "Nc1c(C(=O)c2ccccc2)sc2nc(-c3cccs3)ccc12"
Result: > 100 µM

Ask: Return TGI for the following compound: "CC(=O)O/N=C/c1ncccc1CO"
Result: > 100 µM

Ask: Return TGI for the following compound: "COc1ccc(-c2c(C3=NCCN3)nnn2-c2ccccc2)cc1"
Result: > 100 µM
